Recorded values, source patent US20240075137A1.

Molecular target: T1, human PVRIG on cells (human, UniProt Q6DKI7 1-326)
T1 construct: whole, on cells; over-expressed on HEK cells or endogenous on Jurkat and CD8 T cells; also called hPVRIG; HEK hPVRIG cells
T1 sequence (looked up): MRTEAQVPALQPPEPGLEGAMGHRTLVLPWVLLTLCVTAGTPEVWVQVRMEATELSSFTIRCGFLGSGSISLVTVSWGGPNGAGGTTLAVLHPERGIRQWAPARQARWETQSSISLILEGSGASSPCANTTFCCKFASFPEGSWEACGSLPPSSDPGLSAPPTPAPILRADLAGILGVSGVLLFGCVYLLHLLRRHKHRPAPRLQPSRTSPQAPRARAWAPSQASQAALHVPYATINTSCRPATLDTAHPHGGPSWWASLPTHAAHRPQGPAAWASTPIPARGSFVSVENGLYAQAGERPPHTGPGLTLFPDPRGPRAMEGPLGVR
Assay: FACS, HEK hPVRIG over HEK parental cells, 3.3ug/ml
RECORDED METRIC: gMFIr HEK OE/par
Kindly provide the number alone.

Guide cases for gMFIr HEK OE/par, answers given:
CHA.7.516 (antibody, V domains shown) VH: QVQLQQSGPELVRPGVSVKISCKVSGYTFTDYVMHWVKQSHAKSLEWIGIISPYSGNTNYNQNFKGKATMTVDKSSSTAYMALARLTSEDSAIYYCAREGDLPMFAYWGQGTLVTVSA VL: QIVLTQSPTIMSASPGEKVTMTCSASSSVSYIYWYQQNPGSSPRLLIYDTSILASGVPFRFSGSGSGTSYSLTISRMEAEDAATYYCQQWTSYPLTFGSGTKLELK    37.9
CHA.7.535 (antibody, V domains shown) VH: EVQLQQSGPELVKPGASVKISCKTSGYTFTKNTMHWVRQSHGKSLEWIGGINPNSGGASFNQKFMGKATLTVDKSSSTAYMELRSLTSEDSAVYYCARDGYDGDWFFDVWGAGTTVTVSS VL: DIQMNQSPFSLSASLGDTVTITCHASQNIYVWLSWYQQKPGNIPKLLIYKASDLHTGVPSRFSGSGSGTDFTLNISSLQPEDIATYYCQQGQSYPRTFGGGTKLEIK    40.4

Now for a further binder.
Memo: CHA.7.508 (antibody, V domains shown) VH: EVQLQQSGPDLVKPGASMKISCKASGYTFIDYNIHWVKQSQGKSLDWIGYIYPYNGGTGYNQKFKNKATLTVDSSSSTAYMEVRSLTFEDSAVYFCAREADYYGNRGQFDYWGQGTLVTVSA VL: DIQMTQSPASLSVSVGETVTITCRASENIFSNLAWYQQKQGKSPQLLVYGEANLADGVPSRFSGSGSGTQYSLKINSLQSEDFGNYYCQHFWGTPYTFGGGTTLEIK , reported gMFIr HEK OE/par: 45.9
